The reported measurements were obtained from patent US8541441B2.

- TEST TARGET: O-GlcNAcase (Homo sapiens, UniProt O60502)
- Sequence (O60502 whole entry): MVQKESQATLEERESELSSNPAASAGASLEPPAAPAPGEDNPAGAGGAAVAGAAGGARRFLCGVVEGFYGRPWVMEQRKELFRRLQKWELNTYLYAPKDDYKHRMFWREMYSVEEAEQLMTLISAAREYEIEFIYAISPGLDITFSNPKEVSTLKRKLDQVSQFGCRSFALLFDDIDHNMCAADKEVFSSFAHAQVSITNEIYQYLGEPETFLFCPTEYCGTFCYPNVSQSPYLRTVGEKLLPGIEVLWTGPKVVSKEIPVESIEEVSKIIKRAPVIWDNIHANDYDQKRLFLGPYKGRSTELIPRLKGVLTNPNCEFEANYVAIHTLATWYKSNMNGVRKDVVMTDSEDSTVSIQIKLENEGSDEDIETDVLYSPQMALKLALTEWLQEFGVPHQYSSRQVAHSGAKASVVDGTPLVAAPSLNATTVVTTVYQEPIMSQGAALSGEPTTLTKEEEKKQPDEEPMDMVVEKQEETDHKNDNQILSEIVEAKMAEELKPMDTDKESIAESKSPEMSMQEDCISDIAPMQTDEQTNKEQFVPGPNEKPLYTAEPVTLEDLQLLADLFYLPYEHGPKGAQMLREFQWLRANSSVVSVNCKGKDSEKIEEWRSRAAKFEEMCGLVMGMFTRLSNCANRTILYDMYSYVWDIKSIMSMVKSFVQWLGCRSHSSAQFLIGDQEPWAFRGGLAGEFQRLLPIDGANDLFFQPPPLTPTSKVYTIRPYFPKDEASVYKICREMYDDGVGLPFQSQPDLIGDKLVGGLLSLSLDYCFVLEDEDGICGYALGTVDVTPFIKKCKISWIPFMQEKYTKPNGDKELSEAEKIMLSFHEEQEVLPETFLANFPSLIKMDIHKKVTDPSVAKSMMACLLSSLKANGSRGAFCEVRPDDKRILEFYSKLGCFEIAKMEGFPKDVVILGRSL
ATTRIBUTE MEASURED: Ki (nM)

# COMPOUND, RESULT
rows = [
    ("CC(=O)N[C@H]1CN2CC[C@H](O)[C@@H]2[C@@H](O)[C@@H]1O [Compound 1]", 670),
]
